Assay text: GLP-controlled toxicity study
Design: species or system mice
Assay conditions: mouse, in vivo
Observation type: NOAEL at 4 weeks

Compound	Result
COc1cccc(Oc2ccccc2NC(=O)CNC(=O)c2cccc3ccccc23)c1 [AOH1996]	≥ 250 mg/kg

###

Assay text: GLP-controlled toxicity study
Parameters: species or system dogs
Assay conditions: dog, in vivo
Observation type: NOAEL at 4 weeks (mg/kg)

Item smiles	Observation type	Recorded number
COc1cccc(Oc2ccccc2NC(=O)CNC(=O)c2cccc3ccccc23)c1	NOAEL at 4 weeks	75
